Source of measurements: patent US20240182536A1

Molecular target: T1, interleukin 18 binding protein (IL-18BP) (UniProt O95998 31-194); also: unit not given here
T1 sequence (looked up): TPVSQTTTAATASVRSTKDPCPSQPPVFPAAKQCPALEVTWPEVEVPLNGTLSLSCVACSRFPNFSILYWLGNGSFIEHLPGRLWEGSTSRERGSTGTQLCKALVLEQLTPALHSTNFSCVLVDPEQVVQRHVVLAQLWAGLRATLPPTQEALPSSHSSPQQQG
Test: cell-based or functional assay
Observed Property: HEK-Blue activity, +100 nM BP, DF-1,000,000
Could you keep your reply to the number by itself?

Hello, please tell me recorded HEK-Blue activity, +100 nM BP, DF-1,000,000 for this one: IL-18 variant S36W, D37E, D40F, N41I, K53D, S55N (ligand) YFGKLESKLSVIRNLNDQVLFIDQGNRPLFEDMTDWEMRFIAPRTIFIISMYDDNQPRGMAVTISVKSEKISTLSSENKIISFKEMNPPDNIKDTKSDIIFFQRSVPGHDNKMQFESSSYEGYFLASEKERDLFKLILKKEDELGDRSIMFTVQNED
0.12

Hello, please tell me recorded HEK-Blue activity, +100 nM BP, DF-1,000,000 for this one: IL-18 variant S36E, D37E, D40V, N41S, K53Y, S55V, H109Y (ligand) YFGKLESKLSVIRNLNDQVLFIDQGNRPLFEDMTDEEMRVSAPRTIFIISMYYDVQPRGMAVTISVKSEKISTLSSENKIISFKEMNPPDNIKDTKSDIIFFQRSVPGYDNKMQFESSSYEGYFLASEKERDLFKLILKKEDELGDRSIMFTVQNED
0.1

Hello, please tell me recorded HEK-Blue activity, +100 nM BP, DF-1,000,000 for this one: IL-18 variant K53H, S55R (ligand) YFGKLESKLSVIRNLNDQVLFIDQGNRPLFEDMTDSDMRDNAPRTIFIISMYHDRQPRGMAVTISVKSEKISTLSSENKIISFKEMNPPDNIKDTKSDIIFFQRSVPGHDNKMQFESSSYEGYFLASEKERDLFKLILKKEDELGDRSIMFTVQNED
0.09

Hello, please tell me recorded HEK-Blue activity, +100 nM BP, DF-1,000,000 for this one: IL-18 variant K53H, S55H (ligand) YFGKLESKLSVIRNLNDQVLFIDQGNRPLFEDMTDSDMRDNAPRTIFIISMYHDHQPRGMAVTISVKSEKISTLSSENKIISFKEMNPPDNIKDTKSDIIFFQRSVPGHDNKMQFESSSYEGYFLASEKERDLFKLILKKEDELGDRSIMFTVQNED
0.09

Hello, please tell me recorded HEK-Blue activity, +100 nM BP, DF-1,000,000 for this one: IL-18 variant T34M, S36T, D37E, D40T, N41M, K53T, S55W (ligand) YFGKLESKLSVIRNLNDQVLFIDQGNRPLFEDMMDTEMRTMAPRTIFIISMYTDWQPRGMAVTISVKSEKISTLSSENKIISFKEMNPPDNIKDTKSDIIFFQRSVPGHDNKMQFESSSYEGYFLASEKERDLFKLILKKEDELGDRSIMFTVQNED
0.12

Hello, please tell me recorded HEK-Blue activity, +100 nM BP, DF-1,000,000 for this one: IL-18 variant K53N, S55H, H109F (ligand) YFGKLESKLSVIRNLNDQVLFIDQGNRPLFEDMTDSDMRDNAPRTIFIISMYNDHQPRGMAVTISVKSEKISTLSSENKIISFKEMNPPDNIKDTKSDIIFFQRSVPGFDNKMQFESSSYEGYFLASEKERDLFKLILKKEDELGDRSIMFTVQNED
0.09

Hello, please tell me recorded HEK-Blue activity, +100 nM BP, DF-1,000,000 for this one: IL-18 variant K53G, S55I, R104K, P107Y (ligand) YFGKLESKLSVIRNLNDQVLFIDQGNRPLFEDMTDSDMRDNAPRTIFIISMYGDIQPRGMAVTISVKSEKISTLSSENKIISFKEMNPPDNIKDTKSDIIFFQKSVYGHDNKMQFESSSYEGYFLASEKERDLFKLILKKEDELGDRSIMFTVQNED
0.09

Hello, please tell me recorded HEK-Blue activity, +100 nM BP, DF-1,000,000 for this one: IL-18 variant K53D, S55N, H109I (ligand) YFGKLESKLSVIRNLNDQVLFIDQGNRPLFEDMTDSDMRDNAPRTIFIISMYDDNQPRGMAVTISVKSEKISTLSSENKIISFKEMNPPDNIKDTKSDIIFFQRSVPGIDNKMQFESSSYEGYFLASEKERDLFKLILKKEDELGDRSIMFTVQNED
0.09

Hello, please tell me recorded HEK-Blue activity, +100 nM BP, DF-1,000,000 for this one: IL-18 variant L9V, K53H, S55M (ligand) YFGKLESKVSVIRNLNDQVLFIDQGNRPLFEDMTDSDMRDNAPRTIFIISMYHDMQPRGMAVTISVKSEKISTLSSENKIISFKEMNPPDNIKDTKSDIIFFQRSVPGHDNKMQFESSSYEGYFLASEKERDLFKLILKKEDELGDRSIMFTVQNED
0.14

Hello, please tell me recorded HEK-Blue activity, +100 nM BP, DF-1,000,000 for this one: IL-18 variant T34N, S36Y, D37E, D40Q, N41Q, K53D, S55D (ligand) YFGKLESKLSVIRNLNDQVLFIDQGNRPLFEDMNDYEMRQQAPRTIFIISMYDDDQPRGMAVTISVKSEKISTLSSENKIISFKEMNPPDNIKDTKSDIIFFQRSVPGHDNKMQFESSSYEGYFLASEKERDLFKLILKKEDELGDRSIMFTVQNED
0.09

Hello, please tell me recorded HEK-Blue activity, +100 nM BP, DF-1,000,000 for this one: IL-18 variant S36E, D37E, D40R, N41G, K53Y, S55F (ligand) YFGKLESKLSVIRNLNDQVLFIDQGNRPLFEDMTDEEMRRGAPRTIFIISMYYDFQPRGMAVTISVKSEKISTLSSENKIISFKEMNPPDNIKDTKSDIIFFQRSVPGHDNKMQFESSSYEGYFLASEKERDLFKLILKKEDELGDRSIMFTVQNED
0.14
